Listing of recorded peptide exchange yield by entry.
Biological target: T1, HLA-A*02:01 (human)
T1 construct: MHC monomers first loaded with a UV-sensitive peptide (not identified) that is cleaved and exchanged for the test peptide; captured on streptavidin-coated plates and detected with anti-β2m; also called peptide-receptive MHC molecules; MHC class I
Test: UV-ligand exchange, anti-b2m ELISA; peptide exchange yield grade

ILFDPDNSSAL	≥ 75%
ALDSTNSEL	≥ 75%
RLQDTTIGL	≥ 75%
SLLDGSESAKL	≥ 75%
SLDDSLNEL	50 to 75%

Report peptide exchange yield for IQDTSHLAV please.
50 to 75%

Report peptide exchange yield for KTWDQSIAL please.
≥ 75%

Report peptide exchange yield for FMNDRSFIL please.
≥ 75%

Report peptide exchange yield for NVDSTILNL please.
≥ 75%
